molecular target: Protein smoothened (Mus musculus, UniProt P56726); experiment: Inhibition of Smoothened receptor in mouse TM3 cells transfected with pTA-8xGli-Luc reporter gene assessed as inhibition of 1 nM 3-chloro-4,7-difluoro-N-(4-methoxy-3-(pyridin-4-yl)benzyl)-N-(4-(methylamino)cyclohexyl)benzo[b]thiophene-2-carboxamide-induced Hedgehog pathway activation by Gli shift assay; format: cell-based
Sequence (P56726 whole entry): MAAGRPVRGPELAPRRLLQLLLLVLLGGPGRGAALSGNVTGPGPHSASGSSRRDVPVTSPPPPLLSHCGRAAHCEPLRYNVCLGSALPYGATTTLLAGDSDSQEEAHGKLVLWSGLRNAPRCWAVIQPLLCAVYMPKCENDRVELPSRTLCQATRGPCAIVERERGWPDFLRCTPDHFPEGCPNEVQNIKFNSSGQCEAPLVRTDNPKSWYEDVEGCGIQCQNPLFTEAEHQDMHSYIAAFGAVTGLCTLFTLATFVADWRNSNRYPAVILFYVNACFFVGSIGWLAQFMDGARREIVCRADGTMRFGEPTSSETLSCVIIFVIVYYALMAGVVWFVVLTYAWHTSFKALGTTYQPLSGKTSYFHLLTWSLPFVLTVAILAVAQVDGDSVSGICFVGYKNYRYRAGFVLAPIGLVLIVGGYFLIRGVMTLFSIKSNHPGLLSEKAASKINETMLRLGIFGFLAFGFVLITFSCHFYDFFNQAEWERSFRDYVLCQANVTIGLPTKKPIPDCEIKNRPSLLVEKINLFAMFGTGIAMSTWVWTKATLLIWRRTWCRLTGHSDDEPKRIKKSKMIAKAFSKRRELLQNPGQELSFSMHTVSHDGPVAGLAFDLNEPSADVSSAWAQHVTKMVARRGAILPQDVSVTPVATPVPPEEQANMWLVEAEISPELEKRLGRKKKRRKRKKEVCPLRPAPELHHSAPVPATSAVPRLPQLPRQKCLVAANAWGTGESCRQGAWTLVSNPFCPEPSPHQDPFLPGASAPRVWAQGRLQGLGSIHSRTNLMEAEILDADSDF
Simple rule here: IC50 less than 80 nM is TRUE, otherwise FALSE.

Q: I wonder whether "CC(=O)NCc1ccc(N2CCN(c3nnc(Cc4ccccc4)c4ccccc34)CC2)nc1" has IC50 below 80 nM. Can you tell?
A: TRUE

Q: IC50 strictly < 80 nM for this compound? "N#Cc1ccc(N2CCN(c3ncc(Cc4ccccc4)c4ccccc34)CC2)nc1"
A: FALSE

Q: # check: IC50 < 80 nM for "N#Cc1ccc(N2CCCN(c3nnc(Cc4ccccc4)c4ccccc34)CC2)nc1"
A: FALSE

Q: Check if IC50 falls below 80 nM for "N#Cc1ccc(N2CCN(c3nnc(Cc4ccc(Cl)cc4)c4ccccc34)CC2)nc1" .
A: TRUE

Q: Given "O=C(O)c1ccc(N2CCN(c3nnc(Cc4ccccc4)c4ccccc34)CC2)nc1" , is recorded IC50 strictly lower than 80 nM?
A: FALSE

Q: Strictly below 80 nM: is that where IC50 of "N#Cc1ccc(N2CCN(c3nnc(Cc4ccccc4)c4ccccc34)CC2)nc1" sits?
A: TRUE

Q: Does "N#Cc1ccc(N2CCN(c3nnc(Cc4ccc(C(F)(F)F)cc4)c4ccccc34)CC2)nc1" have IC50 strictly under 80 nM?
A: FALSE

Now turn to the next compound.
Q: Is it true that IC50 reported for CC(O)(CO)c1ccc(N2CCN(c3nnc(Cc4ccccc4)c4ccccc34)CC2)nc1 (racemic) is less than 80 nM?
A: TRUE

* * *

test: AUC (0 to infinity) in nude mouse plasma at 5 mg/kg, po after 24 hrs; type: ADME, organism-based; design: time infinity, dose 5 mg/kg, route oral
observation.type: AUC(0-inf) (µM·h)
One number for each entry, in µM·h.

// sample "CC(C)(O)c1ccc(N2CCN(c3nnc(Cc4ccccc4)c4ccccc34)CC2)nc1" , its AUC(0-inf) was 26.5

* * *

assay: Volume of distribution at steady state in nude mouse plasma at 1 mg/kg, iv after 24 hrs; type: ADME, organism-based; parameters: dose 1 mg/kg, route intravenous; conditions: read-out: Vdss
observation.type: Vd (L/kg)
Answers are plain numbers, in L/kg.

Recorded result, "CC(C)(O)c1ccc(N2CCN(c3nnc(Cc4ccccc4)c4ccccc34)CC2)nc1" , Vd: 0.2

* * *

target: Protein smoothened (Homo sapiens, UniProt Q99835); test: Displacement of [3H]3-chloro-4,7-difluoro-N-(4-methoxy-3-(pyridin-4-yl)benzyl)-N-(4-(methylamino)cyclohexyl)benzo[b]thiophene-2-carboxamide from human Smoothened receptor expressed in CHO-K1 cells by membrane filter binding assay
Sequence (Q99835 whole entry): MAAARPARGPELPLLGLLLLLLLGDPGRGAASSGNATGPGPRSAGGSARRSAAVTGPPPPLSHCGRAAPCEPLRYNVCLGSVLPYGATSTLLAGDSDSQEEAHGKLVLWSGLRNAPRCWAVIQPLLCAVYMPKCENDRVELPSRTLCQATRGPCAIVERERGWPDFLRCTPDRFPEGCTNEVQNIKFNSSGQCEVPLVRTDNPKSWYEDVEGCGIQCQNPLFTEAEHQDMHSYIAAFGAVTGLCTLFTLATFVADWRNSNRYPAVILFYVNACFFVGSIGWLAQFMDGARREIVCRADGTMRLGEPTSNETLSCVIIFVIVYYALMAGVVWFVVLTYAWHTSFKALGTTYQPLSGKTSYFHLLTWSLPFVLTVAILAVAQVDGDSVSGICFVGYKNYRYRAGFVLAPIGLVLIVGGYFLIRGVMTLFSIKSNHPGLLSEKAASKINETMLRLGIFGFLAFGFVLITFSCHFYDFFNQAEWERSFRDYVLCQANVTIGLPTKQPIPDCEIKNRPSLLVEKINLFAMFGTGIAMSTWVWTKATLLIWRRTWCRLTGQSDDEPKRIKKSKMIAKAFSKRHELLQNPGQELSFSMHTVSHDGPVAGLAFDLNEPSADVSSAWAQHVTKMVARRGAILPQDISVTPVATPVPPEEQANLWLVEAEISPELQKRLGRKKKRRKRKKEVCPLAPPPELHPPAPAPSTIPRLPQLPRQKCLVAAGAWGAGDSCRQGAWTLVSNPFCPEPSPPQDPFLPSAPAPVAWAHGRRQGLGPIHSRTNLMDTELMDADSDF
observation.type: IC50
The reply should read as a number followed by its unit.

Below are worked cases with known answers.
Note to self: IC50 recorded for "C[C@@H]1CN(c2ccc(C#N)cn2)CCN1c1nnc(Cc2ccccc2)c2ccccc12" was 217 nM

What the record says about "N#Cc1ccc(N2CCC(c3cn(Cc4ccccc4)c4ccccc34)CC2)nc1" : IC50 is 401 nM

So for "FC(F)(F)c1ccc(N2CCN(c3nnc(Cc4ccccc4)c4ccccc34)CC2)nc1" , the logged IC50 turned out to be 95 nM

"NC(=O)c1ccc(N2CCN(c3nnc(Cc4ccccc4)c4ccccc34)CC2)nc1" yielded IC50 of 724 nM

We next turn to a different molecule, shown below.
Lab note: measured IC50 of "O=C(O)c1ccc(N2CCN(c3nnc(Cc4ccccc4)c4ccccc34)CC2)nc1" was 2260 nM
